# Protocol summary: Intra-pulmonary steady-state concentrations (plasma, ELF, alveolar cells) after multiple IV doses in healthy adult subjects
# Format: in vivo, human
# Assay setup: human, in vivo, Ratio of Omadacycline Concentrations in Epithelial Lining Fluid to Plasma (Mean, SD)
Measured property: Kp at 1 h

# compound CN(C)c1cc(CNCC(C)(C)C)c(O)c2c1C[C@H]1C[C@H]3C(N(C)C)C(O)=C(C(N)=O)C(=O)[C@@]3(O)C(O)=C1C2=O (stereo partly shown) ; its Kp at 1 h = 2.72

---

# Protocol summary: Intra-pulmonary steady-state concentrations (plasma, ELF, alveolar cells) after multiple IV doses in healthy adult subjects
# Type: in vivo, human
# Assay setup: human, in vivo, Alveolar Macrophages (AM) concentration (mean ± SD)
Measured property: concentration at 12 h (ng/mL)
Dear colleague, please return just the value in ng/mL, with no unit written.

# molecule CN(C)c1cc(CNCC(C)(C)C)c(O)c2c1C[C@H]1C[C@H]3C(N(C)C)C(O)=C(C(N)=O)C(=O)[C@@]3(O)C(O)=C1C2=O (stereo partly shown) [Omadacycline] ; its concentration at 12 h = 12300

---

# Protocol summary: Intra-pulmonary steady-state concentrations (plasma, ELF, alveolar cells) after multiple IV doses in healthy adult subjects
# Type: in vivo, human
# Assay setup: human, in vivo; model-computed, compartment models; read-out: Total-drug AUC72-96, ELF (Median)
# Description: The remaining 20 subjects received tigecycline as 1 intravenous dose of 100 mg administered as a 30 minute infusion at t=0, followed by 6 intravenous doses of 50 mg administered as 30 minute infusions at t=12, 24, 36, 48, 60, and 72 hours. A study completion visit was conducted on the day following the final test article dose. […]
Measured property: AUC

# compound CN(C)c1cc(NC(=O)CNC(C)(C)C)c(O)c2c1C[C@H]1C[C@H]3[C@H](N(C)C)C(O)=C(C(N)=O)C(=O)[C@@]3(O)C(O)=C1C2=O ; its AUC = 2590 ng·h/mL

---

# Protocol summary: Intra-pulmonary steady-state concentrations (plasma, ELF, alveolar cells) after multiple IV doses in healthy adult subjects
# Assay type: in vivo, human
# Assay setup: human, in vivo, Ratio of Omadacycline Concentrations in Alveolar Cells to Plasma (Mean, SD)
Measured property: Kp at 0.5 h
Could you keep your reply to the number by itself?

# molecule CN(C)c1cc(CNCC(C)(C)C)c(O)c2c1C[C@H]1C[C@H]3C(N(C)C)C(O)=C(C(N)=O)C(=O)[C@@]3(O)C(O)=C1C2=O (stereo partly shown) ; its Kp at 0.5 h = 8.12

---

# Protocol summary: Intra-pulmonary steady-state concentrations (plasma, ELF, alveolar cells) after multiple IV doses in healthy adult subjects
# Format: in vivo, human
# Assay setup: human, in vivo, Ratio of Omadacycline Concentrations in Epithelial Lining Fluid to Plasma (Mean, SD)
Measured property: Kp at 24 h
Could you keep your reply to the number by itself?

# compound CN(C)c1cc(CNCC(C)(C)C)c(O)c2c1C[C@H]1C[C@H]3C(N(C)C)C(O)=C(C(N)=O)C(=O)[C@@]3(O)C(O)=C1C2=O (stereo partly shown) ; its Kp at 24 h = 1.65

---

# Protocol summary: Intra-pulmonary steady-state concentrations (plasma, ELF, alveolar cells) after multiple IV doses in healthy adult subjects
# Format: in vivo, human
# Assay setup: human, in vivo, Epithelial lining fluid (ELF) concentration (mean ± SD)
Measured property: concentration at 1 h (ng/mL)
Dear colleague, please return just the value in ng/mL, with no unit written.

# compound CN(C)c1cc(CNCC(C)(C)C)c(O)c2c1C[C@H]1C[C@H]3C(N(C)C)C(O)=C(C(N)=O)C(=O)[C@@]3(O)C(O)=C1C2=O (stereo partly shown) [Omadacycline] ; its concentration at 1 h = 2250

---

# Protocol summary: Intra-pulmonary steady-state concentrations (plasma, ELF, alveolar cells) after multiple IV doses in healthy adult subjects
# Format: in vivo, human
# Assay setup: human, in vivo, Penetration ratio AC:Plasma based on AUCmedian
# Description: The remaining 20 subjects received tigecycline as 1 intravenous dose of 100 mg administered as a 30 minute infusion at t=0, followed by 6 intravenous doses of 50 mg administered as 30 minute infusions at t=12, 24, 36, 48, 60, and 72 hours. A study completion visit was conducted on the day following the final test article dose. […]
Measured property: Kp
Could you keep your reply to the number by itself?

# molecule CN(C)c1cc(CNCC(C)(C)C)c(O)c2c1C[C@H]1C[C@H]3C(N(C)C)C(O)=C(C(N)=O)C(=O)[C@@]3(O)C(O)=C1C2=O (stereo partly shown) ; its Kp = 24.8

---

# Protocol summary: Intra-pulmonary steady-state concentrations (plasma, ELF, alveolar cells) after multiple IV doses in healthy adult subjects
# Type: in vivo, human
# Assay setup: human, in vivo, Ratio of Omadacycline Concentrations in Epithelial Lining Fluid to Plasma (Mean, SD)
Measured property: Kp at 2 h
Could you keep your reply to the number by itself?

# molecule CN(C)c1cc(CNCC(C)(C)C)c(O)c2c1C[C@H]1C[C@H]3C(N(C)C)C(O)=C(C(N)=O)C(=O)[C@@]3(O)C(O)=C1C2=O (stereo partly shown) ; its Kp at 2 h = 1.5

---

# Protocol summary: Intra-pulmonary steady-state concentrations (plasma, ELF, alveolar cells) after multiple IV doses in healthy adult subjects
# Assay type: in vivo, human
# Assay setup: human, in vivo, mean concentration in alveolar cells relative to plasma
Measured property: Kp

# compound CN(C)c1cc(CNCC(C)(C)C)c(O)c2c1C[C@H]1C[C@H]3C(N(C)C)C(O)=C(C(N)=O)C(=O)[C@@]3(O)C(O)=C1C2=O (stereo partly shown) ; its Kp = ~25

---

# Tested on: M. fortuitum group
# Protocol summary: MIC (CLSI broth dilution), RGM isolates
# Format: cell-based
# Assay setup: Mycolicibacterium fortuitum, isolate 33, M. fortuitum group, M. senegalense; read-out: MIC
Measured property: MIC (µg/mL)
Dear colleague, please return just the value in µg/mL, with no unit written.

>>> print(df.to_string())
                                 smiles_str  reported_value
0  CN(C)c1cc(CNCC(C)(C)C)c(O)c2c1C[C@H]1C[C@H]3[C@H](N(C)C)C(O)=C(C(N)=O)C(=O)[C@@]3(O)C(O)=C1C2=O            0.12

Alright, here's another molecule for you.
For the molecule COc1c(N2C[C@@H]3CCCN[C@@H]3C2)c(F)cc2c(=O)c(C(=O)O)cn(C3CC3)c12 , the measured MIC on M. fortuitum group was 0.12

---

# Protocol summary: Intra-pulmonary steady-state concentrations (plasma, ELF, alveolar cells) after multiple IV doses in healthy adult subjects
# Assay type: in vivo, human
# Assay setup: human, in vivo, Epithelial lining fluid (ELF) concentration (mean ± SD)
# Experimental: The remaining 20 subjects received tigecycline as 1 intravenous dose of 100 mg administered as a 30 minute infusion at t=0, followed by 6 intravenous doses of 50 mg administered as 30 minute infusions at t=12, 24, 36, 48, 60, and 72 hours. A study completion visit was conducted on the day following the final test article dose. […]
Measured property: concentration at 0.5 h (ng/mL)
Dear colleague, please return just the value in ng/mL, with no unit written.

# compound CN(C)c1cc(CNCC(C)(C)C)c(O)c2c1C[C@H]1C[C@H]3C(N(C)C)C(O)=C(C(N)=O)C(=O)[C@@]3(O)C(O)=C1C2=O (stereo partly shown) [Omadacycline] ; its concentration at 0.5 h = 1730

---

Measured MIC by item
# System: M. immunogenum group
# Protocol summary: MIC (CLSI broth dilution), RGM isolates
# Format: cell-based
# Assay setup: isolate 35, M. immunogenum group, M. immunogenum
Dear colleague, please return just the value in µg/mL, with no unit written.

Compound	Measured property	Reported value
CN(C)c1cc(NC(=O)CNC(C)(C)C)c(O)c2c1C[C@H]1C[C@H]3[C@H](N(C)C)C(O)=C(C(N)=O)C(=O)[C@@]3(O)C(O)=C1C2=O [Tigecycline, tigecycline]	MIC	0.5
NCC[C@H](O)C(=O)N[C@@H]1C[C@H](N)[C@@H](O[C@H]2O[C@H](CN)[C@@H](O)[C@H](O)[C@H]2O)[C@H](O)[C@H]1O[C@H]1O[C@H](CO)[C@@H](O)[C@H](N)[C@H]1O [Amikacin, amikacin]	MIC	16

Alright, here's another compound for you.
# compound C[C@@H](O)[C@H]1C(=O)N2C(C(=O)O)=C(SCCN=CN)C[C@H]12 [IPM, imipenem] ; its MIC = 16

---

# Protocol summary: Intra-pulmonary steady-state concentrations (plasma, ELF, alveolar cells) after multiple IV doses in healthy adult subjects
# Type: in vivo, human
# Assay setup: human, in vivo, Ratio of Omadacycline Concentrations in Alveolar Cells to Plasma (Mean, SD)
Measured property: Kp at 1 h
Could you keep your reply to the number by itself?

# molecule CN(C)c1cc(CNCC(C)(C)C)c(O)c2c1C[C@H]1C[C@H]3C(N(C)C)C(O)=C(C(N)=O)C(=O)[C@@]3(O)C(O)=C1C2=O (stereo partly shown) [Omadacycline] ; its Kp at 1 h = 13.8
